Below, each entry is listed alongside its reported Papp A→B at 3 µM.
- Test system: MDR1
- EXPERIMENT: Apparent permeability across apical to basolateral side in MDCKII-MDR1 cells at 3 uM by LC/MS/MS analysis
- Assay type: ADME, cell-based, Canis lupus familiaris
- CONDITION: dog, MDCK-MDR1

# MOL_SMILES, Papp A→B at 3 µM
rows = [
    ("COc1cc2c(cc1OC)CN(CCc1ccc(-n3nnc(-c4cc(Oc5cccnc5)ccc4NC(=O)c4cc(=O)c5ccccc5o4)n3)cc1)CC2", "0.0072 ×10⁻⁶ cm/s"),
    ("COc1cc(NC(=O)c2cc(=O)c3ccccc3o2)c(-c2nnn(-c3ccc(CCN4CCn5cncc5C4)cc3)n2)cc1OCc1ccccc1", "< 0.02 ×10⁻⁶ cm/s"),
    ("COc1cc(NC(=O)c2cc(=O)c3ccccc3o2)c(-c2nnn(-c3ccc(CCN4CCc5cnccc5C4)cc3)n2)cc1OC", "< 0.02 ×10⁻⁶ cm/s"),
]

====

- EXPERIMENT: Cmax in CD-1 mouse at 20 mg/kg, po 30 mins prior to 10 mg/kg, po docetaxel administration measured after 8 hrs by LC-MS/MS analysis
- Format: ADME, organism-based
- Design: route oral, time 8.5 hrs, dose 20 mg/kg
- CONDITION: in vivo

# MOL_SMILES, Cmax, ng/mL
records = [
    ("COc1cc2c(cc1OC)CN(CCc1ccc(-n3nnc(-c4cc(Oc5cccnc5)ccc4NC(=O)c4cc(=O)c5ccccc5o4)n3)cc1)CC2", 2.46),
]

====

- ASSAY_SYSTEM: Cytochrome P450 3A4 (Homo sapiens, UniProt P08684)
- Sequence (P08684 whole entry): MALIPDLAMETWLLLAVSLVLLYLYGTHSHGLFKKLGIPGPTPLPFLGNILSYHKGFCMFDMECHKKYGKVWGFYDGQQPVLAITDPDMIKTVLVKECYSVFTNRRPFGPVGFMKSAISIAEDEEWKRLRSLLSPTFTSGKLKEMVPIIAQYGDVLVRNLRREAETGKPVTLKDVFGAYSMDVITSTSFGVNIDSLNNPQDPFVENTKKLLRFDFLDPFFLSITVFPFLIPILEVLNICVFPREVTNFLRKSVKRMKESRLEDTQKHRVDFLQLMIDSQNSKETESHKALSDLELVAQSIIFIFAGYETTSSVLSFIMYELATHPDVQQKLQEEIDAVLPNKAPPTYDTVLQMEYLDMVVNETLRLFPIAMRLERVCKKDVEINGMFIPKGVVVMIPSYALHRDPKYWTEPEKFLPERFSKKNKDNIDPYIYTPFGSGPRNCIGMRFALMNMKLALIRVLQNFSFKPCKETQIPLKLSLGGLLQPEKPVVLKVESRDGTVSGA
- EXPERIMENT: Inhibition of CYP3A4 in human liver microsomes using IPA as substrate preincubated for 10 mins followed by NADPH generating system addition and measured after 20 mins
pIC50: −log10 of the molar value.

# MOL_SMILES, ASSAY_SYSTEM, LIMIT_QUALIFIER, pIC50
rows = [
    ("COc1cc(NC(=O)c2cc(=O)c3ccccc3o2)c(-c2nnn(-c3ccc(CCN4CCc5cnccc5C4)cc3)n2)cc1OCc1ccccc1", "Cytochrome P450 3A4 (Homo sapiens, UniProt P08684)", "=", 5.91),
    ("COc1cc2c(cc1OC)CN(CCc1ccc(-n3nnc(-c4cc(OC)c(OC)cc4NC(=O)c4cc(=O)c5cc(-n6ccnc6)ccc5o4)n3)cc1)CC2", "Cytochrome P450 3A4 (Homo sapiens, UniProt P08684)", "=", 5.48),
    ("COc1cc2c(cc1OC)CN(CCc1ccc(-n3nnc(-c4cc(OCCc5cccnc5)ccc4NC(=O)c4cc(=O)c5ccccc5o4)n3)cc1)CC2", "Cytochrome P450 3A4 (Homo sapiens, UniProt P08684)", "=", 6.14),
    ("COc1cc(NC(=O)c2cc(=O)c3ccccc3o2)c(-c2nnn(-c3ccc(CCN4CCc5cc(-n6ccnc6)ccc5C4)cc3)n2)cc1OC", "Cytochrome P450 3A4 (Homo sapiens, UniProt P08684)", "=", 6.52),
    ("COc1cc(NC(=O)c2cc(=O)c3ccccc3o2)c(-c2nnn(-c3ccc(CCN4CCn5cncc5C4)cc3)n2)cc1OC", "Cytochrome P450 3A4 (Homo sapiens, UniProt P08684)", "=", 6.83),
    ("COc1cc2c(cc1OC)CN(CCc1ccc(-n3nnc(-c4cc(OCc5cccnc5)c(OC)cc4NC(=O)c4cc(=O)c5ccccc5o4)n3)cc1)CC2", "Cytochrome P450 3A4 (Homo sapiens, UniProt P08684)", "<", 5.05),
    ("COc1cc2c(cc1OC)CN(CCc1ccc(-n3nnc(-c4cc(OC)c(OC)cc4NC(=O)c4cc(=O)c5cc(-c6ccncc6)ccc5o4)n3)cc1)CC2", "Cytochrome P450 3A4 (Homo sapiens, UniProt P08684)", "<", 5.05),
]

====

- Tested on: MES-SA/Dx5
- EXPERIMENT: Cytotoxicity in human MES-SA/Dx5 cells assessed as reduction in cell viability at 1.28 uM incubated for 3 days by MTT assay relative to control
- Type: toxicity, cell-based
- CONDITION: mes-sa/dx5, 72 h, time 3 day
Listed here are molecules together with their documented Activity.
QUANTITY: Activity (%)

# MOL_SMILES, UNITS, EXPERIMENTAL_VALUE
rows = [
    ("COc1cc(NC(=O)c2cc(=O)c3ccccc3o2)c(-c2nnn(-c3ccc(CCN4CCc5ccncc5C4)cc3)n2)cc1OC", "%", 1),
    ("COc1cc(NC(=O)c2cc(=O)c3ccccc3o2)c(-c2nnn(-c3ccc(CCN4CCc5cnccc5C4)cc3)n2)cc1OC", "%", 1),
    ("COc1cc2c(cc1OC)CN(CCc1ccc(-n3nnc(-c4cc(OC)c(OC)cc4NC(=O)c4cc(=O)c5cc(Br)ccc5o4)n3)cc1)CC2", "%", 30),
    ("COc1cc(NC(=O)c2cc(=O)c3ccccc3o2)c(-c2nnn(-c3ccc(CCN4CCc5cnccc5C4)cc3)n2)cc1OCc1ccccc1", "%", 3),
    ("COc1cc2c(cc1OC)CN(CCc1ccc(-n3nnc(-c4cc(OCc5ccncc5)ccc4NC(=O)c4cc(=O)c5ccccc5o4)n3)cc1)CC2", "%", 33),
    ("COc1cc(NC(=O)c2cc(=O)c3ccccc3o2)c(-c2nnn(-c3ccc(CCN4CCc5cc(-n6ccnc6)ccc5C4)cc3)n2)cc1OC", "%", 10),
    ("COc1cc2c(cc1OC)CN(CCc1ccc(-n3nnc(-c4cc(OC)c(OC)cc4NC(=O)c4cc(=O)c5cc(-n6ccnc6)ccc5o4)n3)cc1)CC2", "%", 6),
    ("COc1cc2c(cc1OC)CN(CCc1ccc(-n3nnc(-c4cc(Oc5ccncc5)ccc4NC(=O)c4cc(=O)c5ccccc5o4)n3)cc1)CC2", "%", 9),
    ("COc1cc2c(cc1OC)CN(CCc1ccc(-n3nnc(-c4cc(OCCc5cccnc5)ccc4NC(=O)c4cc(=O)c5ccccc5o4)n3)cc1)CC2", "%", 1),
    ("COc1cc2c(cc1OC)CN(CCc1ccc(-n3nnc(-c4cc(Oc5cccnc5)ccc4NC(=O)c4cc(=O)c5ccccc5o4)n3)cc1)CC2", "%", 2),
    ("COc1cc2c(cc1OC)CN(CCc1ccc(-n3nnc(-c4cc(OC)c(OC)cc4NC(=O)c4cc(=O)c5cc(-c6ccncc6)ccc5o4)n3)cc1)CC2", "%", 1),
    ("COc1cc2c(cc1OC)CN(CCc1ccc(-n3nnc(-c4cc(OCc5cccnc5)c(OC)cc4NC(=O)c4cc(=O)c5ccccc5o4)n3)cc1)CC2", "%", 36),
    ("COc1cc(NC(=O)c2cc(=O)c3ccccc3o2)c(-c2nnn(-c3ccc(CCN4CCc5ccc(-n6ccnc6)cc5C4)cc3)n2)cc1OC", "%", 1),
    ("COc1cc2c(cc1OC)CN(CCc1ccc(-n3nnc(-c4cc(OC)c(OC)cc4NC(=O)c4cc(=O)c5ccccc5o4)n3)cc1)CC2", "%", 6),
]

====

- EXPERIMENT: Efflux ratio of apparent permeability across apical to basolateral to basolateral to apical membrane membrane in MDCK1 at 3 uM in presence of valspodar
- Assay type: ADME, cell-based, Canis lupus familiaris
- CONDITION: dog, MDCK, with valspodar (concentration not stated)

# MOL_SMILES, efflux ratio at 3 µM
data = [
    ("COc1cc2c(cc1OC)CN(CCc1ccc(-n3nnc(-c4cc(Oc5cccnc5)ccc4NC(=O)c4cc(=O)c5ccccc5o4)n3)cc1)CC2", 0.085),
]

====

- EXPERIMENT: AUC (0 to t) in CD-1 mouse at 20 mg/kg, po 30 mins prior to 10 mg/kg, po docetaxel administration measured after 8 hrs by LC-MS/MS analysis
- Format: ADME, organism-based
- Parameters: route oral, dose 20 mg/kg, time 8.5 hrs
- CONDITION: in vivo
QUANTITY: AUC(0-t) at 8.5 h

# MOL_SMILES, EXPERIMENTAL_VALUE
records = [
    ("COc1cc2c(cc1OC)CN(CCc1ccc(-n3nnc(-c4cc(Oc5cccnc5)ccc4NC(=O)c4cc(=O)c5ccccc5o4)n3)cc1)CC2", "11.7 ng·h/mL"),
]

====

- System: MDR1
- EXPERIMENT: Efflux ratio of apparent permeability across apical to basolateral to basolateral to apical membrane membrane in MDCKII-MDR1at 1 uM in presence of valspodar
- Assay type: ADME, cell-based, Canis lupus familiaris
- CONDITION: dog, MDCK-MDR1, with valspodar (concentration not stated)

# MOL_SMILES, efflux ratio at 1 µM
rows = [
    ("COc1cc2c(cc1OC)CN(CCc1ccc(-n3nnc(-c4cc(OC)c(OC)cc4NC(=O)c4cc(=O)c5ccccc5o4)n3)cc1)CC2", 1.73),
]

====

- EXPERIMENT: Apparent permeability across basolateral side to apical side in MDCK1 cells at 3 uM by LC/MS/MS analysis
- Assay type: ADME, cell-based, Canis lupus familiaris
- CONDITION: dog, MDCK

# MOL_SMILES, Papp B→A at 3 µM
records = [
    ("COc1cc2c(cc1OC)CN(CCc1ccc(-n3nnc(-c4cc(Oc5cccnc5)ccc4NC(=O)c4cc(=O)c5ccccc5o4)n3)cc1)CC2", "< 0.002 ×10⁻⁶ cm/s"),
]
